- experimental.context: 283.15 K; 100 kPa; Liquid; Vibrating tube method
quantity.name: mass density (kg/m3)
Please give a number only; it is taken to be in kg/m3.

Would you please look over these solved cases?
| compound | display.unit | mass density |
| --- | --- | --- |
| CCCCn1cc[n+](C)c1.F[B-](F)(F)F [1-butyl-3-methylimidazolium tetrafluoroborate] | kg/m3 | 1212.5 |
| CCCCn1cc[n+](C)c1.N#C[S-] [1-butyl-3-methylimidazolium thiocyanate] | kg/m3 | 1079.2 |
| CCCCn1cc[n+](C)c1.N#CN=C=[N-] [1-butyl-3-methylimidazolium dicyanamide] | kg/m3 | 1070 |
| CC(=O)[O-].CCCCn1cc[n+](C)c1 [1-butyl-3-methylimidazolium acetate] | kg/m3 | 1062.7 |

Given item CCCC[n+]1ccn(C)c1.O=S(=O)([N-]S(=O)(=O)C(F)(F)F)C(F)(F)F , the value recorded as its mass density is 1451.8

For record CCCCn1cc[n+](C)c1.COP(=O)([O-])OC [1-butyl-3-methyl-1H-imidazolium dimethylphosphate] the listed mass density is 1168.4

Data provenance: the NIST ThermoML archive (doi:10.1021/acs.jced.6b00178)
